Target: T1, MCL-1 (human, UniProt Q07820 1-350)
T1 chain: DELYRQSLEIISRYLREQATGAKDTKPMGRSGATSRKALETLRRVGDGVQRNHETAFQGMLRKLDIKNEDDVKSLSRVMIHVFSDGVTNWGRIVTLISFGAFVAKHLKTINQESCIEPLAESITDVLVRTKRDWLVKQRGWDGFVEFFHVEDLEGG
Assay: FP
pEC50: −log10 of the molar value. Ends that are not written are not given here. MTS‑TFMD = trifluoromethyl phenyl diazirine photocrosslinker tag, disulfide-linked to Cys via MTS; MTS‑diazirine = alkyl diazirine tag, disulfide-linked to Cys via MTS
measured-endpoint: pEC50

Solved cases (3 shown):
[[record]]
binder = "EDIC(MTS‑diazirine)RNIARHLAQVGDSMDRSIP [BID_(80-102) I83C tagged with MTS-diazirine]"
quantitative_result = 6.39

[[record]]
binder = "EDIIRNIARHLAQVGDSC(MTS‑diazirine)DRSIP [BID_(80-102) M97C tagged with MTS-diazirine]"
quantitative_result = 6.37

[[record]]
binder = "EDIIRNIARHLAQVGDSMDRCIP (Cys100 disulfide-linked to MTS-TFMD (trifluoromethyl phenyl diazirine) tag; synthetic peptide, termini not stated in main text Limits not printed in the main text (supplement); 172-327 is the usual soluble MCL-1 construct for BH3 assays, close to the PDB 2KBW construct) [BID_(80-102) S100C tagged with MTS-TFMD]"
quantitative_result = 6.54


A: EDIIRNIARHLAQVGDSMDRSIP (Limits not printed in the main text (supplement); 172-327 is the usual soluble MCL-1 construct for BH3 assays, close to the PDB 2KBW construct) [WT BID_(80-102)]
B: EDIIRNIARHLAQVGDSC(MTS‑TFMD)DRSIP [BID_(80-102) M97C tagged with MTS-TFMD]
C: EDIIRNIARHLAQC(MTS‑diazirine)GDSMDRSIP [BID_(80-102) V93C tagged with MTS-diazirine]
Request: Endpoint returns the given binders ordered by ascending pEC50. Please reply with the labels ordered as requested. Many thanks.
Result: C, A, B
